Exercise: state measured abundance fitness for each of the variants provided.
B1: POU domain, class 3, transcription factor 2, residues 262 to 338; numbered along this chain, P20265 (parent)
chain: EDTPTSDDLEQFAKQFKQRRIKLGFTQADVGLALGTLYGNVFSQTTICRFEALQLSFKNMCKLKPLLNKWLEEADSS

# Variants of: B1
# TEST_METHOD_NOTES: abundance fitness (aPCA) (normalised: wild type 0, dead -1); higher = more abundant; growth selection in yeast, the domain comes from the species named
# DETAILS: Homo sapiens
Answers are plain numbers.

> print(dat)
   changes            measure  obs.value
1     F57Q  abundance fitness     -0.022
2     K22Q  abundance fitness     -0.028
3     T45Q  abundance fitness      0.005
4     D29M  abundance fitness     -0.299
5     K58S  abundance fitness     -0.053
6     L63W  abundance fitness     -0.489

Provide abundance fitness values for the following items, in order.
1. T46H
2. I21E
3. F57N
4. S76G

Reply:
-0.208
-0.004
0.031
0.004

Ask: Which value of abundance fitness has been reported for P65E in the records?
Reply: -0.133
